Where do the numbers come from? From patent US20240150334A1.

pIC50: −log10 of the molar value. Where a name gives a salt, the structure may show the parent alone.
Lab note: pIC50 readings collected with HSD17B13 enzyme (Homo sapiens (Human), UniProt Q7Z5P4) for the following molecules.
Sequence (Q7Z5P4 20-300): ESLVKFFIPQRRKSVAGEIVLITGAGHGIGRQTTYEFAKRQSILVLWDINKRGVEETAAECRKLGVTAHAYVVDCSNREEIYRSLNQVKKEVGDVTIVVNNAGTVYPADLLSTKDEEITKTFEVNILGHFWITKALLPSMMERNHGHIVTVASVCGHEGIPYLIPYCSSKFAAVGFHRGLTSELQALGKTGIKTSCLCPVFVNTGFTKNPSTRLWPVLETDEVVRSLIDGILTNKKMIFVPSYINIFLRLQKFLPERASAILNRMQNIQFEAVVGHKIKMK
ENDPOINT_LABEL: pIC50

1) O=C(NC[C@H]1CC[C@H](n2cc3cc(OCC4CC4)ncc3n2)CC1)c1cc(F)c(O)c(F)c1 [Example 32, ammonium salt] :: 7.60
2) COc1cccc(-c2ccc3cn([C@H]4CC[C@H](CNC(=O)c5cc(F)c(O)c(F)c5)CC4)nc3c2)c1 :: 8.25
3) O=C(NC[C@H]1CC[C@H](c2nc3ccccc3o2)CC1)c1cc(F)c(O)c(F)c1 :: 7.85

I: O=C(NC[C@H]1CC[C@H](n2cc3cc(-c4cccnc4)ncc3n2)CC1)c1cc(F)c(O)c(F)c1
II: Cc1ccc(-c2ccc3cn([C@H]4CC[C@H](CNC(=O)c5cc(F)c(O)c(F)c5)CC4)nc3c2)nc1
III: Cc1cc(C)nc(-c2ccc3cn([C@H]4CC[C@H](CNC(=O)c5cc(F)c(O)c(F)c5)CC4)nc3c2)n1
Your job: order these 3 records by pIC50, ascending. Output the labels ranked as instructed.
II, III, I
(II: 7.59, III: 7.82, I: 8.06)

* * *

TARGET_UNDER_TEST: wild type human HSD17B13 (Homo sapiens (Human), UniProt Q7Z5P4)
Sequence (Q7Z5P4 20-300): as above
PROCEDURE_SUMMARY: HEK_Beta-Est LCMS_IC50_Tekcel, whole-cell HEK-HSD17B13 inhibition assay, estrone production by LCMS
MEASUREMENT_CONTEXT: geometric mean, HEK cells stably expressing wild type human HSD17B13, 25 μM FAC beta-estradiol, read-out: HEK_Beta-Est LCMS_IC50—Tekcel GMean IC50
Where a name gives a salt, the structure may show the parent alone.
ENDPOINT_LABEL: IC50 (µM)

Known results for compounds:
1. Cn1cc(-c2ccc3cn([C@]45CC[C@](CNC(=O)c6cc(F)c(O)c(F)c6)(CC4)CC5)nc3c2)cn1 :: 0.099
2. O=C(NC[C@H]1CC[C@H](n2cc3cc(Cl)ccc3n2)CC1)c1cc(F)c(O)cc1F [Example 145, trifluoroacetate salt] :: 0.26
3. CN1CCN(c2ccc3cn([C@H]4CC[C@H](CNC(=O)c5cc(F)c(O)c(F)c5)CC4)nc3c2)CC1 [Example 136, ammonium salt] :: 0.3
4. O=C(NC[C@H]1CC[C@H](n2cc3ccc(-c4ncc(C5CC5)cn4)cc3n2)CC1)c1cc(F)c(O)c(F)c1 :: 0.23
5. O=C(NC[C@]12CC[C@@](c3nc(-c4ncc(C(F)(F)F)cn4)no3)(CC1)CC2)c1cc(F)c(O)c(F)c1F :: 0.13

P: N#Cc1ccc2cn([C@H]3CC[C@H](CNC(=O)c4cc(F)c(O)c(F)c4)CC3)nc2c1 [Example 134, ammonium salt]
Q: O=C(NC[C@]12CC[C@](c3nc(-c4ccc(C(F)(F)F)nn4)no3)(CC1)CC2)c1cc(F)c(O)cc1F
Which gives the smaller IC50 number: P or Q ? Choose, then provide that item's label.
Q
(Q: 0.14 µM, P: 0.47 µM)

* * *

TARGET_UNDER_TEST: wild type human HSD17B13 (Homo sapiens (Human))
PROCEDURE_SUMMARY: HEK_Beta-Est LCMS_IC50_Tekcel, whole-cell HEK-HSD17B13 inhibition assay, estrone production by LCMS
MEASUREMENT_CONTEXT: geometric mean, HEK cells stably expressing wild type human HSD17B13, 25 μM FAC beta-estradiol, read-out: HEK_Beta-Est LCMS_IC50—Tekcel GMean IC50
Where a name gives a salt, the structure may show the parent alone.
ENDPOINT_LABEL: IC50 (µM)

In the examples that follow, each entry is paired with its recorded IC50.
1) O=C(NC[C@H]1CC[C@H](n2cc3cc(-c4cscn4)ccc3n2)CC1)c1cc(F)c(O)c(F)c1 :: 0.12
2) O=C(NC[C@H]1CC[C@H](n2cc3ccc(-c4ccsn4)cc3n2)CC1)c1cc(F)c(O)c(F)c1 :: 0.11
3) O=C(NC[C@H]1CC[C@H](n2cc3ccc(-c4cnn5c4OCC5)cc3n2)CC1)c1cc(F)c(O)c(F)c1 :: 0.15
4) O=C(NC[C@]12CC[C@](c3noc(-c4ccc(OS(=O)(=O)F)cc4)n3)(CC1)CC2)c1cc(F)c(O)c(F)c1 :: 0.43
5) COc1cncc(-c2ccc3cn([C@H]4CC[C@H](CNC(=O)c5cc(F)c(O)c(F)c5)CC4)nc3c2)c1 [Example 120, trifluoroacetate salt] :: 0.25
6) COc1nccc(-c2ccc3cn([C@H]4CC[C@H](CNC(=O)c5cc(F)c(O)c(F)c5)CC4)nc3c2)n1 :: 0.17

P: O=C(NC[C@H]1CC[C@H](n2cc3ccc(-c4cnn(C5COC5)c4)cc3n2)CC1)c1cc(F)c(O)c(F)c1
Q: Cn1cc(-c2ccc3cn([C@H]4CC[C@H](CNC(=O)c5cc(F)c(O)c(F)c5)CC4)nc3c2)c(C2CC2)n1
Determine, for P and Q , which has the greater value of IC50. Identify your pick by its label.
Q

1: O=C(NC[C@H]1CC[C@H](n2cc3cc(Cl)ccc3n2)CC1)c1cc(F)c(O)c(F)c1 [Example 132, ammonium salt]
2: COc1ccnc(-c2ccc3cn([C@H]4CC[C@H](CNC(=O)c5cc(F)c(O)c(F)c5)CC4)nc3c2)n1
3: O=C(NC[C@H]1CC[C@H](c2noc(-c3ccc(C(F)(F)F)cn3)n2)CC1)c1cc(F)c(O)c(F)c1
# desc sort on IC50 across 3 molecules Answer by listing the labels in the order asked for.
3, 2, 1
(3: 0.47 µM, 2: 0.24 µM, 1: 0.14 µM)

1: O=C(NC[C@]12CC[C@](c3nc(-c4cnc(C(F)(F)F)cn4)no3)(CC1)CC2)c1cc(F)c(O)c(F)c1
2: O=C(NC[C@]12CC[C@](n3cc4cc(C(F)(F)F)ccc4n3)(CC1)CC2)c1cc(F)c(O)c(F)c1
Record comparison, field IC50: mark the lower of 1 and 2 . Reply briefly: the label of your chosen item.
1
